test-target: T1, hDicer PPC cassette (Homo sapiens, UniProt Q9UPY3 753-1068)
T1 sequence: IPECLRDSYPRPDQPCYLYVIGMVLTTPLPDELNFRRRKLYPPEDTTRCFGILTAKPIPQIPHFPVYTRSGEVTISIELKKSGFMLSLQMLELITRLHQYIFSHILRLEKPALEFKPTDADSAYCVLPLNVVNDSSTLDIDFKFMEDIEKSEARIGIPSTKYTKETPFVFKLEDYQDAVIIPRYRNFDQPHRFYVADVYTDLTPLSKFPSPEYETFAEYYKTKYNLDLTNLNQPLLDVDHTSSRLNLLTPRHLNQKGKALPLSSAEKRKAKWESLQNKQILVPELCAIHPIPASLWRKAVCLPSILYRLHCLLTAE
method-notes: EMSA; EMSA: 20 mM Tris-HCl pH 7.4, 100 mM KCl, 30 min on ice; 5% or 10% native PAGE at 4 C in 1x TBE; G-rich oligos folded in 50 mM KCl
details: protein: recombinant; tags: N-terminal 6xHis (pMCSG7); label: 5'-32P; G4
pKd: −log10 of the molar value.
measurement-name: pKd

Problem: Would you mind telling me what pKd value was observed for GGGGUUUUGGGG (structured_RNA) [G4U4G4] ?
Result: ~8.00
